- targetOfAssay: UniProt Q86WV6
- Sequence (Q86WV6 whole entry): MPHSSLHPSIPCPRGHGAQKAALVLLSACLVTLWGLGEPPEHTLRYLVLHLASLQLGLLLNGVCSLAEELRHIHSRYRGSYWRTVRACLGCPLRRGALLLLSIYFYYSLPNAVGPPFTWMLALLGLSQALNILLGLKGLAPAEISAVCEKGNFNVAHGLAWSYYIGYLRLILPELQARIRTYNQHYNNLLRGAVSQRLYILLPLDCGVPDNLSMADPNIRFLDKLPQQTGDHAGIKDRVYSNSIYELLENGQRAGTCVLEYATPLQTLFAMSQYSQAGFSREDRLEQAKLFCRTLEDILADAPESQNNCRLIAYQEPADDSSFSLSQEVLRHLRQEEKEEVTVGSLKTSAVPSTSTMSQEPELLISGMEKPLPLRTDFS
- protocolSummary: HTRF binding assay (STING binding assay)
- statedConditions: inhibition of d2-labeled 2',3'-cGAMP binding to 6His-tagged STING
pIC50: −log10 of the molar value.
measurementKind: pIC50

CCn1nc(C)cc1C(=O)Nc1nc2cc(C(N)=O)cc(OCCCCn3c(NC(=O)c4cc(C)nn4CC)nc4cc(C(N)=O)cc(OC)c43)c2n1C : 7.14
CCn1nc(C)cc1C(=O)Nc1nc2cc(C(N)=O)cc(OCCCn3c(NC(=O)c4cc(C)nn4CC)nc4cc(C(N)=O)ccc43)c2n1C : 6.36
CCn1nc(C)cc1C(=O)Nc1nc2cc(C(N)=O)cc(OC/C=C/Cn3c(NC(=O)c4cc(C)nn4CC)nc4cc(C(N)=O)cc(OCCCN5CCNCC5)c43)c2n1C : 6.82

A = CCn1nc(C)cc1C(=O)Nc1nc2cc(C(N)=O)cc(OCCCn3c(NC(=O)c4cc(C)nn4CC)nc4cc(C(N)=O)cc(OC)c43)c2n1C
B = CCn1nc(C)cc1C(=O)Nc1nc2cc(C(N)=O)cc(OCCCCn3c(NC(=O)c4cc(C)nn4CC)nc4cc(C(N)=O)cc(OCCCN5CCNCC5)c43)c2n1C
Endpoint returns whichever of A and B has the numerically higher pIC50. Give the chosen item's label as your response.
A

A = CCn1nc(C)cc1C(=O)Nc1nc2cc(C(N)=O)cc(OCCn3c(NC(=O)c4cc(C)nn4CC)nc4cc(C(N)=O)cc(OC)c43)c2n1C
B = CCn1nc(C)cc1C(=O)Nc1nc2cc(C(N)=O)cc(OCCCn3c(NC(=O)c4cc(C)nn4CC)nc4cc(C(N)=O)cc(OCCCN5CCNCC5)c43)c2n1C
Could you please tell me which of these two has the higher pIC50: A or B ? Pick one and reply with its label.
B
(B: 7.29, A: 6.68)

Reference source: patent US20240417486A1
